- Tested on: Mus musculus
- Experimental details: Analgesic activity in Mus musculus Swiss albino (mouse) assessed as inhibition of acetic acid-induced writhing at 100 mg/kg, ip measured after 30 min relative to control
- Type: functional
- Assay setup: 0.5 h, route intraperitoneal
Reported property: inhibition in vivo at 100 mg/kg (%)
The reply should contain only the number, in %.

Recorded inhibition in vivo at 100 mg/kg, per entry:
[[record]]
compound = "O=C(CSc1ccccc1C(=O)O)Nc1ccc(Br)cc1"
reported_property = "inhibition in vivo at 100 mg/kg"
units_label = "%"
measured_result = 9.04

[[record]]
compound = "COc1ccc(NC(=O)CSc2ccccc2C(=O)O)cc1"
reported_property = "inhibition in vivo at 100 mg/kg"
units_label = "%"
measured_result = 27.7

[[record]]
compound = "O=C(CSc1ccccc1C(=O)O)Nc1ccccc1"
reported_property = "inhibition in vivo at 100 mg/kg"
units_label = "%"
measured_result = 54.8


IN: Entry Cc1ccc(NC(=O)CSc2ccccc2C(=O)O)cc1 : reported inhibition in vivo at 100 mg/kg = ?
OUT: 76.3

IN: Entry CC(=O)Nc1ccc(O)cc1 [ACETAMINOPHEN] : reported inhibition in vivo at 100 mg/kg = ?
OUT: 29.4

IN: Entry O=C(CSc1ccccc1C(=O)O)Nc1ccc(C(=O)O)cc1 : reported inhibition in vivo at 100 mg/kg = ?
OUT: 20.3

IN: Entry O=C(CSc1ccccc1C(=O)O)Nc1ccc(Cl)cc1 : reported inhibition in vivo at 100 mg/kg = ?
OUT: 49.7

IN: Entry O=C(O)c1ccccc1S [THIOSALICYLIC ACID] : reported inhibition in vivo at 100 mg/kg = ?
OUT: 33.9
